B1: library; a variant is named by its letters at N, in order (parent)
chain: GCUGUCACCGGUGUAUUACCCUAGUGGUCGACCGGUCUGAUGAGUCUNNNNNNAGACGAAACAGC

Variants of: B1
Assay: FACS-Seq fitted mean relative fluorescence mCherry/BFP without ligand (log10 relative fluorescence); ligand: hypoxanthine (xanthine aptamer); higher = higher reporter protein expression
Conditions: HEK293T, ligand present: no
Think of 0.4 as a floor: if FACS-Seq fitted mean (log10) stands on it or above, it is MET; beneath it, NOT MET.

GCUGUCACCGGUGUAUUACCCUAGUGGUCGACCGGUCUGAUGAGUCUAAUUCGAGACGAAACAGC : NOT MET

IN: Could you verify whether the entry GCUGUCACCGGUGUAUUACCCUAGUGGUCGACCGGUCUGAUGAGUCUGCGAAGAGACGAAACAGC shows FACS-Seq fitted mean (log10) of no less than 0.4?
OUT: NOT MET

IN: Could you verify whether the entry GCUGUCACCGGUGUAUUACCCUAGUGGUCGACCGGUCUGAUGAGUCUCUAGUCAGACGAAACAGC shows FACS-Seq fitted mean (log10) of no less than 0.4?
OUT: MET

IN: Could you verify whether the entry GCUGUCACCGGUGUAUUACCCUAGUGGUCGACCGGUCUGAUGAGUCUAAAGGCAGACGAAACAGC shows FACS-Seq fitted mean (log10) of no less than 0.4?
OUT: NOT MET

IN: Could you verify whether the entry GCUGUCACCGGUGUAUUACCCUAGUGGUCGACCGGUCUGAUGAGUCUAAGGGAAGACGAAACAGC shows FACS-Seq fitted mean (log10) of no less than 0.4?
OUT: NOT MET

IN: Could you verify whether the entry GCUGUCACCGGUGUAUUACCCUAGUGGUCGACCGGUCUGAUGAGUCUCCGGUGAGACGAAACAGC shows FACS-Seq fitted mean (log10) of no less than 0.4?
OUT: NOT MET
